Recorded values, source paper PMC7962642.

test system: Psa strains; experiment: IC50 from bacterial growth curves; assay type: cell-based, Pseudomonas syringae pv. actinidiae; conditions: based on bacterial growth curves; strain P85; read-out: half-maximal inhibitory concentration (IC50)
No end group written: not given here.
readout: IC50

Item KWKLFKKIGAVLKVL-NH2 [CA-M] : provide IC50
~4 µM
